target_of_assay: T1, Dog ASGR-1 (dog)
T1 construct: Expressed on HEK 293 cells or as membrane prep on beads; cDNA GenBank XM_546579
T1 chain: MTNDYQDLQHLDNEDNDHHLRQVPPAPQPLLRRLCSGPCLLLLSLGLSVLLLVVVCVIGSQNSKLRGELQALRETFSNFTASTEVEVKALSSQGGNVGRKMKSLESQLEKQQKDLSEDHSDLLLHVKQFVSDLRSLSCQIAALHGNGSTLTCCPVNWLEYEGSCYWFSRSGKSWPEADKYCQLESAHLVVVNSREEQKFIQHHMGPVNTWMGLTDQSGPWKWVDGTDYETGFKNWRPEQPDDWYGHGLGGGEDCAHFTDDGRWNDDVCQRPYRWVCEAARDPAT
experiment: FACS on transfected HEK 293 cells or membrane preps on beads; Y = signal at least 2x irrelevant IgG
endpoint_label: binding result

| binder | measurement |
| --- | --- |
| 198G3 (antibody, V domains shown, Tested as hybridoma supernatant at normalized concentration) VH: QVQLVESGGGVVQPGRSLKLSCAASGFTFSTYGMHWVRQAPGKGLEWVAVIWYDGTNKNYADSVKGRFTISRDNSKNTLCLQMNSLRAEDTAVYYCARDQGVGYDGLDVWGQGTTVTVSS VL: DIQMAQSPSSLSASVGDRVTITCRTSQGIGKYLAWFQQKPGKAPKSLLYKASSLQGGVPSKFSGSGSGTDFTLTISSLQPEDFATYYCQQYMTYPLTFGGGTKVEIK | binds |
| 191G1 (antibody, V domains shown, Tested as hybridoma supernatant at normalized concentration) VH: QVQLVESGGGVVQPGRSLRLSCAASGFTFSSYGMHWVRQAPGKGLEWVAVIWYDGSNEHYADSVKGRFTISRDNSKNTLYLQMNSLRAEDTAVYYCARDRGVGYYGLDVWGQGTTVTVSS VL: DIQMTQSPSSLSASVGDRVTITCRASQGISNYLAWFQQKPGKAPKSLIYAASSLQSGVPSKFSGSGSGTDFTLTISSLQPEDFATYYCQHYLTYPLTFGGGTKVEIK | binds |
| 72G9 (antibody, V domains shown, Tested as hybridoma supernatant at normalized concentration) VH: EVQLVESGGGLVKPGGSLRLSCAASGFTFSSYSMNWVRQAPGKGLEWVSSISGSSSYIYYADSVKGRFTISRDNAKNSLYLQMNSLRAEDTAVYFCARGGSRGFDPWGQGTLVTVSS VL: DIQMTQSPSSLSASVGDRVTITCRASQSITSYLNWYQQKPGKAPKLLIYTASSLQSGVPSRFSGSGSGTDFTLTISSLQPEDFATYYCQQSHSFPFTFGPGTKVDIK | binds |

All values here come from patent US20190248902A1.
